Listing: corrected activity, negative = more killing of selected molecules
assayComment: small molecules boosting NK-mediated OVCAR3 lysis – imaging, primary NK cells, calcein-AM imaging, primary screen (AID 1508625);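 also: compound given to NK cells 16 h before adding targets at 1.5 to 1 ratio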
settings: OVCAR3 lysis by primary NK cells, at 5 µM
measuredQuantity: corrected activity, negative = more killing (%)

molecule | assayValue
O=c1c2ccccc2nc(-c2ccco2)n1-c1ccc(Cl)cc1 | -0.835
CCCCCn1c(=O)c(C(=O)Nc2cccc(OC)c2)c(O)c2ccccc21 | -0.341
CCOc1cccc(C(O)CNC)c1 (stereo unspecified) | 0.0567
CCC(C)N1CCN(Cc2cccc(Cl)c2)CC1 (stereo unspecified) | -0.307
Cc1ccc(OCC(=O)N2CCN(C3CCCCC3)CC2)cc1 | -3.64
CC12CN3CN(C1)CC(C)(C3)C2=NN | -6.15
O=[N+]([O-])c1ccccc1CNCCc1cccc(F)c1 | -3.35
O=[N+]([O-])c1ccc(NCCc2ccccc2)c2ncccc12 | 1.61
CCCC12CN3CCN(CC(C3)C1O)C2 (stereo unspecified) | 0.145
COc1ccc(C2(CN)CCCC2)cc1OC | -1.26
FC(F)(F)c1ccc(CNCCc2ccc3c(c2)OCO3)cc1 | -3.37
CCOP(=S)(OCC)SCC(=O)c1c(O)cc(C)oc1=O | -2.68
CCOC(=O)CN1C(=O)NC2(CCN(C)CC2)C1=O | -3.8
O=S1(=O)CC2(N3CCOCC3)CCCCC21 (stereo unspecified) | -5.53
O=c1cccc2n1C[C@H]1C[C@@H]2CN(Cc2ccccc2F)C1 | -2.76
C=CCON=C(CCC)C1C(=O)CC(C)(C)C(C(=O)OC)C1=O (stereo unspecified) | -4.48

###

assayComment: small molecules boosting NK-mediated OVCAR3 lysis – imaging, primary NK cells, calcein-AM imaging, primary screen (AID 1508625);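 also: compound given to NK cells 16 h before adding targets at 1.5 to 1 ratio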;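 as to Z-score: more negative robust z means stronger NK killing of tumor cells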
settings: OVCAR3 lysis by primary NK cells, at 5 µM; measured here: robust Z-score, single-point normalisation
measuredQuantity: z-score

compound | assayValue
CCN(CC)CCCn1c(=S)[nH]c2cc(Cl)ccc2c1=O | -1.2
CC12CN3CN(C1)CC(C)(C3)C2=NN | -2.42
COc1cccc(CCNCc2ccc(C)cc2C)c1 | -1.29
O=c1c2ccccc2nc(-c2ccco2)n1-c1ccc(Cl)cc1 | -0.329
CCOc1cccc(C(O)CNC)c1 (configuration not stated) | 0.0176
CCC(C)N1CCN(Cc2cccc(Cl)c2)CC1 (configuration not stated) | -0.137
C=CCON=C(CCC)C1C(=O)CC(C)(C)C(C(=O)OC)C1=O (configuration not stated) | -1.77
O=S1(=O)CC2(N3CCOCC3)CCCCC21 (configuration not stated) | -1.76
O=[N+]([O-])c1ccccc1CNCCc1cccc(F)c1 | -1.06
O=[N+]([O-])c1ccc(NCCc2ccccc2)c2ncccc12 | 0.498
CCCCCn1c(=O)c(C(=O)Nc2cccc(OC)c2)c(O)c2ccccc21 | -0.108
COc1ccc(C2(CN)CCCC2)cc1OC | -0.675
